System: HCC1937 cells
Test: Cellular PARylation assay
Assay type: cell-based
Settings: Homo sapiens; HCC1937 cells, compound 30 min then 1 mM H2O2 10 min; read-out: cellular PARylation EC50
Reported EC50 is given for each of the following molecules.
quantity_measured: EC50

>>> data_value("CCN1CCC(CN2CCC(C)(c3cnn4c3[nH]c3cc(F)cc(C(N)=O)c34)CC2)CC1 [Example 78]")
"1 to 100 nM"
>>> data_value("NC(=O)c1cc(F)cc2c1-n1ncc(C3CCN(CC4CC4)CC3)c1C2(F)F [Example 50]")
"> 1000 nM"
>>> data_value("Cc1nn2c([nH]c3cc(F)cc(C(N)=O)c32)c1C1(C)CCN(C(C)C)CC1 [Example 114]")
"1 to 100 nM"
>>> data_value("NC(=O)c1cc(F)cc2[nH]c3c(C4CCNCC4)cnn3c12 [Example 1]")
"101 to 1000 nM"
>>> data_value("NC(=O)c1cc(F)cc2[nH]c3c(C4CCN(CC5CC5)CC4)cnn3c12 [Example 5]")
"1 to 100 nM"
>>> data_value("CCN1CCC(c2cnn3c2[nH]c2cccc(C(N)=O)c23)CC1 [Example 27]")
"1 to 100 nM"
>>> data_value("COCCCN1CCC(C)(c2cnn3c2[nH]c2cc(F)cc(C(N)=O)c23)CC1 [Example 72]")
"1 to 100 nM"

###

Test system: HCC1937 cells
Assay: Cellular PARylation assay
Type: cell-based
Conditions: Homo sapiens; HCC1937 cells, compound 30 min then 1 mM H2O2 10 min; read-out: cellular PARylation EC50
pEC50: −log10 of the molar value.
quantity_measured: pEC50

>>> data_value("NC(=O)c1cc(F)cc2[nH]c3c(C4C5CNCC54)cnn3c12 (centres unmarked)")
"6.00 to 7.00"
>>> data_value("COCCN1CCC(c2cnn3c2[nH]c2cc(F)cc(C(N)=O)c23)CC1")
"7.00 to 9.00"
>>> data_value("CC1(c2cnn3c2[nH]c2cc(F)cc(C(N)=O)c23)CCN(C2COC2)C1 (centres unmarked)")
"6.00 to 7.00"
>>> data_value("CCN1CCCC(c2cnn3c2[nH]c2cc(F)cc(C(N)=O)c23)CC1 (centres unmarked)")
"7.00 to 9.00"
>>> data_value("CC1(c2cnn3c2[nH]c2cc(F)cc(C(N)=O)c23)CCN(CC(F)(F)F)C1 (centres unmarked)")
"6.00 to 7.00"
>>> data_value("CN1CCN(C(=O)c2cnn3c2[nH]c2cc(F)cc(C(N)=O)c23)CC1")
"6.00 to 7.00"
>>> data_value("CC1(c2cnn3c2[nH]c2cc(F)cc(C(N)=O)c23)CCN(C2CC(F)C2)CC1 (centres unmarked)")
"7.00 to 9.00"
>>> data_value("CCN1CC2C(C1)C2c1cnn2c1[nH]c1cc(F)cc(C(N)=O)c12 (centres unmarked)")
"6.00 to 7.00"
>>> data_value("CC(C)N1CC2CC2(c2cnn3c2[nH]c2cc(F)cc(C(N)=O)c23)C1 (centres unmarked)")
"7.00 to 9.00"
>>> data_value("NC(=O)c1cc(F)cc2[nH]c3c(C4(CO)CCN(CC5CC5)CC4)cnn3c12")
"6.00 to 7.00"
>>> data_value("NC(=O)c1cc(F)cc2[nH]c3c(C45CC4CN(CC4CC4)C5)cnn3c12 (centres unmarked)")
"7.00 to 9.00"
>>> data_value("CC(C)(F)CN1CCC(c2cnn3c2[nH]c2cc(F)cc(C(N)=O)c23)CC1")
"7.00 to 9.00"
>>> data_value("NC(=O)c1cc(F)cc2[nH]c3c(C4CCN(CCF)CC4)cnn3c12")
"7.00 to 9.00"
>>> data_value("CN(C)C1CCC(c2cnn3c2[nH]c2cc(F)cc(C(N)=O)c23)CC1 (centres unmarked)")
"7.00 to 9.00"
>>> data_value("CCN1CCC(c2cnn3c2[nH]c2cc(F)cc(C(N)=O)c23)CC1")
"7.00 to 9.00"
>>> data_value("CC(C)CN1CCC(C)(c2cnn3c2[nH]c2cc(F)cc(C(N)=O)c23)CC1")
"7.00 to 9.00"
>>> data_value("CCN1CCCC1c1cnn2c1[nH]c1cc(F)cc(C(N)=O)c12 (centres unmarked)")
"6.00 to 7.00"
>>> data_value("CC1(c2cnn3c2[nH]c2cc(F)cc(C(N)=O)c23)CCN(CCC(F)(F)F)C1 (centres unmarked)")
"7.00 to 9.00"
>>> data_value("NC(=O)c1cc(F)cc2[nH]c3c(C4CC(O)CN4)cnn3c12 (centres unmarked)")
"6.00 to 7.00"
>>> data_value("CC1(c2cnn3c2[nH]c2cc(F)cc(C(N)=O)c23)CCN(CCC#N)C1 (centres unmarked)")
"6.00 to 7.00"
>>> data_value("CC1(c2cnn3c2[nH]c2cc(F)cc(C(N)=O)c23)CCN(CC2(C#N)CCC2)CC1")
"6.00 to 7.00"
>>> data_value("CC(C)N1CCC(C)(c2cnn3c2[nH]c2cc(F)cc(C(N)=O)c23)C1 (centres unmarked)")
"7.00 to 9.00"
>>> data_value("CC1(c2cnn3c2[nH]c2cc(F)cc(C(N)=O)c23)CCN(CC2CC2)C1 (centres unmarked)")
"7.00 to 9.00"
>>> data_value("Cc1nn2c([nH]c3cc(F)cc(C(N)=O)c32)c1C1(C)CCN(CC2CC2)CC1")
"7.00 to 9.00"
>>> data_value("CNCc1ccc(-c2cnn3c2[nH]c2cc(F)cc(C(N)=O)c23)cc1")
"6.00 to 7.00"
>>> data_value("CCN1CCC(C)(c2cnn3c2[nH]c2cc(F)cc(C(N)=O)c23)C1 (centres unmarked)")
"7.00 to 9.00"
>>> data_value("CC1(c2cnn3c2[nH]c2cc(F)cc(C(N)=O)c23)CCS(=O)(=O)CC1")
"6.00 to 7.00"
>>> data_value("NC(=O)c1cc(F)cc2[nH]c3c(-c4ccc(C5CCCNC5)cc4)cnn3c12 (centres unmarked)")
"< 6.00"
>>> data_value("CC1(c2cnn3c2[nH]c2cc(F)cc(C(N)=O)c23)CCN(CC2(C#N)CCC2)C1 (centres unmarked)")
"6.00 to 7.00"
>>> data_value("CCCN1CCCC1c1cnn2c1[nH]c1cc(F)cc(C(N)=O)c12 (centres unmarked)")
"6.00 to 7.00"
>>> data_value("CC1(c2cnn3c2[nH]c2cc(F)cc(C(N)=O)c23)CCN(CCS(C)(=O)=O)C1 (centres unmarked)")
"6.00 to 7.00"
>>> data_value("CCCN1CCC(c2cnn3c2[nH]c2cc(F)cc(C(N)=O)c23)CC1")
"7.00 to 9.00"
>>> data_value("NC(=O)c1cc(F)cc2[nH]c3c(C4CCOCC4)cnn3c12")
"< 6.00"
>>> data_value("CC(C)N1CCC(C)(c2cnn3c2[nH]c2cc(F)cc(C(N)=O)c23)CC1")
"7.00 to 9.00"
>>> data_value("Cc1ncc(CN2CCC(C)(c3cnn4c3[nH]c3cc(F)cc(C(N)=O)c34)CC2)n1C")
"7.00 to 9.00"
